pIC50 values for PIK3CD (Human) (UniProt O00329), compiled from several publications.
API: returns pIC50 as number; meaning -log10 of concentration in mol/L.

Solved cases below.
Exercise: Kindly state the measured pIC50 obtained for Nc1ncnc2c1c(-c1ccccc1CO)nn2C1Cc2ccccc2C1 with PIK3CD (Human) (UniProt O00329).
Key: 6.19

Exercise: Kindly state the measured pIC50 obtained for COc1ncc(-c2nc(N3CCOCC3)nc3c(CN4CCN(C)CC4)csc23)cc1NS(=O)(=O)N(C)C with PIK3CD (Human) (UniProt O00329).
Key: 7.22

Exercise: Kindly state the measured pIC50 obtained for C[C@H]1COCCN1c1cc(-n2c(C(F)F)nc3ccccc32)nc(NCC2CCN(C3CCOCC3)CC2)n1 with PIK3CD (Human) (UniProt O00329).
Key: 7.64

Exercise: Kindly state the measured pIC50 obtained for C=C1CCN(Cc2c(C)sc3c(-c4cnc(OC)c(NS(C)(=O)=O)c4)nc(N4CCOCC4)nc23)CC1 with PIK3CD (Human) (UniProt O00329).
Key: 8.11

Exercise: Kindly state the measured pIC50 obtained for Nc1ncnc2c1c(-c1cc(O)c(F)c(F)c1)cn2C1CCc2ccccc2C1 (stereo not shown) with PIK3CD (Human) (UniProt O00329).
Key: 7.63

Exercise: Kindly state the measured pIC50 obtained for COc1ncc(-c2nc(N3CCOCC3)nc3c(CN4CC(C(C)(C)O)C4)c(C)sc23)cc1NS(C)(=O)=O with PIK3CD (Human) (UniProt O00329).
Key: 7.82

Exercise: Kindly state the measured pIC50 obtained for COc1ncc(-c2nc(N3CCOCC3)c3cc(CN4CCC(N5CCCCC5)CC4)ccc3n2)cc1NS(C)(=O)=O with PIK3CD (Human) (UniProt O00329).
Key: 6.46

Exercise: Kindly state the measured pIC50 obtained for COc1ncc(-c2nc(N3CCOCC3)nc3c(CN4CCN(C)C(=O)C4)cc(F)cc23)cc1NS(C)(=O)=O with PIK3CD (Human) (UniProt O00329).
Key: 7.72

Exercise: Kindly state the measured pIC50 obtained for Cn1ncc2c(Nc3ccc(C(N)=O)cc3)nc(-c3cccc(Cl)c3)nc21 with PIK3CD (Human) (UniProt O00329).
Key: 6.77

Exercise: Kindly state the measured pIC50 obtained for CC(=O)Nc1ccc(Oc2nc(-c3cccc(O)c3)nc3c2cnn3C)cc1 with PIK3CD (Human) (UniProt O00329).
Key: 7.19

New cases:
Exercise: Kindly state the measured pIC50 obtained for FC(F)c1nc2ccccc2n1-c1cc(N2CCOCC2)nc(NCC23CCC(N4CCOCC4)(CC2)CC3)n1 with PIK3CD (Human) (UniProt O00329).
Key: 7.57

Exercise: Kindly state the measured pIC50 obtained for O=C(CNC1CCOCC1)N[C@H]1CC[C@H](Oc2cc(-n3c(C(F)F)nc4ccccc43)nc(N3CCOCC3)n2)CC1 with PIK3CD (Human) (UniProt O00329).
Key: 8.40

Exercise: Kindly state the measured pIC50 obtained for CCN(CC(C)(C)O)[C@H]1CC[C@H](CNc2nc(N3CCOCC3)cc(-n3c(C(F)F)nc4ccccc43)n2)CC1 with PIK3CD (Human) (UniProt O00329).
Key: 7.68

Exercise: Kindly state the measured pIC50 obtained for Nc1ncnc2c1c(-c1cc(O)c(F)c(Cl)c1)cn2C1Cc2ccccc2C1 with PIK3CD (Human) (UniProt O00329).
Key: 7.92
